Source of measurements: patent EP1120414A1

tested.on: PKC β II (Homo sapiens, UniProt P05771)
Construct: purchased CALBIOCHEM
Sequence (P05771 other isoform, or with tags, fused parts or gaps): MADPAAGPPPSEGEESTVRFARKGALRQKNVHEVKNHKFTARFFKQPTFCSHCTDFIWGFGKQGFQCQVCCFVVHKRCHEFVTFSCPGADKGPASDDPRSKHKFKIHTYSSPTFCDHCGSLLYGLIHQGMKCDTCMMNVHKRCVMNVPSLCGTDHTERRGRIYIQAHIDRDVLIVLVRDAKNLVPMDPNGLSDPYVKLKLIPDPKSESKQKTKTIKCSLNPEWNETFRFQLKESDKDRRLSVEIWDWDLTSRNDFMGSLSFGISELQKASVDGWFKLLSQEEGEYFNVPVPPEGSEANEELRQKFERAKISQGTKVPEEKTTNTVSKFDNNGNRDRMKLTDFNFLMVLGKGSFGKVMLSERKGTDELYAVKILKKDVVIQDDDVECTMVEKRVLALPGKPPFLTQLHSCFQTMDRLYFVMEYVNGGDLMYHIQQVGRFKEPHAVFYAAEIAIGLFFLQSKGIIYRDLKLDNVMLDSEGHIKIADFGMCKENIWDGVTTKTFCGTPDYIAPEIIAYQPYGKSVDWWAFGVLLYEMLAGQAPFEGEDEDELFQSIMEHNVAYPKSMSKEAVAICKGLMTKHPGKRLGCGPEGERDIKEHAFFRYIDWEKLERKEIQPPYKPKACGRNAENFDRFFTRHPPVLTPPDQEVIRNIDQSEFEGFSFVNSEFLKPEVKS
protocol.details: PKC enzyme assay (BIOTRAK Protein kinase C enzyme assay system, 32P-ATP phosphorylation of peptide […])
Type: biochemical
setup.conditions: IC50 PKC α / IC50 PKC β II
hey, just use label 1 if measured Ratio α/β is less than 60, otherwise label 0

Please review the following examples before continuing.
>>> class_name("Cc1cn(CCCn2cc(C3=C(Nc4cccc(Cl)c4)C(=O)NC3=O)c3ccccc32)cn1")
"label 1"
>>> class_name("O=C1NC(=O)C(c2cn(CCCN3CCC(Cc4ccccc4)CC3)c3ccccc23)=C1Nc1ccccc1")
"label 0"
>>> class_name("Cc1cccc(NC2=C(c3cn(CCCN(C)C)c4ccccc34)C(=O)NC2=O)c1")
"label 1"

(Q) # strict comparison: is reported Ratio α/β < 60? input = `CN(C)CCN(C)CCCn1cc(C2=C(Nc3ccccc3)C(=O)NC2=O)c2ccccc21`
(A) label 0

(Q) Another molecule to look at: `O=C1NC(=O)C(c2cn(CCCCn3ccnc3)c3ccccc23)=C1Nc1cccc(Cl)c1`
(A) label 1

(Q) Another molecule to look at: `Cc1c(C2=C(Nc3ccccc3)C(=O)NC2=O)c2ccccc2n1CCCN(C)C`
(A) label 0

----------
tested.on: PKC α (Homo sapiens, UniProt P17252)
Construct: purchased CALBIOCHEM
protocol.details: PKC enzyme assay (BIOTRAK Protein kinase C enzyme assay system, 32P-ATP phosphorylation of peptide […])
Assay type: biochemical
setup.conditions: Protein Kinase C, Human Recombinant; test substance 1 nM-10 µM; 37°C, 15 minutes; read-out: Inhibition of PKC activity IC50 PKC α
pIC50: −log10 of the molar value.
Rule: 1 (yes) for pIC50 not less than 6, 0 (no) for anything less.

>>> class_name("O=C1NC(=O)C(c2c[nH]c3ccccc23)=C1Nc1ccccc1")
"0 (no)"

Moving on to the next compound.
(Q) Say whether `CN(C)CCCn1cc(C2=C(Nc3cccc(Cl)c3)C(=O)NC2=O)c2ccccc21` shows pIC50 of 6 or more.
(A) 1 (yes)

----------
tested.on: PKC β II (Homo sapiens)
Construct: purchased CALBIOCHEM
protocol.details: PKC enzyme assay (BIOTRAK Protein kinase C enzyme assay system, 32P-ATP phosphorylation of peptide […])
Type: biochemical
setup.conditions: Protein Kinase C, Human Recombinant; test substance 1 nM-10 µM; 37°C, 15 minutes; read-out: Inhibition of PKC activity IC50 PKC β II
property: pIC50
Recall that pIC50 is obtained by taking minus log10 of the concentration measured in molar.

A selection of reference data follows.
>>> measured_result("O=C1NC(=O)C(c2cn(CCCN3CCC(N4CCCCC4)CC3)c3ccccc23)=C1Nc1ccccc1")
7.92
>>> measured_result("NC(=O)C1CCCN1CCCn1cc(C2=C(Nc3ccccc3)C(=O)NC2=O)c2ccccc21 (stereo not shown)")
7.18
>>> measured_result("O=C1NC(=O)C(c2c3n(c4ccccc24)CCC(CO)C3)=C1Nc1ccccc1 (stereo not shown)")
7.85

Next molecule, please.
(Q) Given `Cc1c(C2=C(Nc3ccccc3)C(=O)NC2=O)c2ccccc2n1CCCN(C)C` , state its recorded pIC50.
(A) 7.21

----------
tested.on: PKC β II (Homo sapiens)
Construct: purchased CALBIOCHEM
protocol.details: PKC enzyme assay (BIOTRAK Protein kinase C enzyme assay system, 32P-ATP phosphorylation of peptide […])
Type: biochemical
setup.conditions: IC50 PKC α / IC50 PKC β II
Recorded measurements of Ratio α/β, one per entry
The answer should be a number; do not append a unit.

>>> measured_result("CCN(CC)C[C@@H]1CCc2c(C3=C(Nc4ccccc4)C(=O)NC3=O)c3ccccc3n2C1")
82
>>> measured_result("O=C1NC(=O)C(c2cn(CC3CCNCC3)c3ccccc23)=C1Nc1ccccc1")
19
>>> measured_result("O=C1NC(=O)C(c2cn(CCCS(=O)(=O)c3ccccc3)c3ccccc23)=C1Nc1ccccc1")
41

(Q) Given `CCN(CCCn1cc(C2=C(Nc3ccccc3)C(=O)NC2=O)c2ccccc21)Cc1ccccc1` , state its recorded Ratio α/β.
(A) 45

(Q) Another compound to look at: O=C1NC(=O)C(c2c3n(c4ccccc24)CC(CN2CCSCC2)C3)=C1Nc1ccccc1 (centres unmarked)
(A) 134

(Q) Another compound to look at: `CN(C)CCCCn1cc(C2=C(Nc3ccccc3)C(=O)NC2=O)c2ccccc21`
(A) 49

(Q) Another compound to look at: `CCN(C)C[C@@H]1CCc2c(C3=C(Nc4ccc5c(c4)OCO5)C(=O)NC3=O)c3ccccc3n2C1`
(A) 82

(Q) Another compound to look at: `CCN(CC)C[C@H]1Cc2c(C3=C(Nc4ccccc4)C(=O)NC3=O)c3ccccc3n2C1`
(A) 61

(Q) Another compound to look at: `COc1ccc(NC2=C(c3cn(CCCn4ccnc4)c4ccccc34)C(=O)NC2=O)cc1`
(A) 47

(Q) Another compound to look at: `Cc1c(C2=C(Nc3ccccc3)C(=O)NC2=O)c2ccccc2n1CCCn1ccnc1`
(A) 117

(Q) Another compound to look at: `NC(=O)C1CCN(CCCn2cc(C3=C(Nc4ccccc4)C(=O)NC3=O)c3ccccc32)CC1`
(A) 68

(Q) Another compound to look at: `O=C1NC(=O)C(c2c3n(c4ccccc24)C[C@@H](CN2CCOCC2)C3)=C1Nc1ccccc1`
(A) 108
